- target: Albumin (Bos taurus) (UniProt P02769)
- Sequence (P02769 whole entry, looked up): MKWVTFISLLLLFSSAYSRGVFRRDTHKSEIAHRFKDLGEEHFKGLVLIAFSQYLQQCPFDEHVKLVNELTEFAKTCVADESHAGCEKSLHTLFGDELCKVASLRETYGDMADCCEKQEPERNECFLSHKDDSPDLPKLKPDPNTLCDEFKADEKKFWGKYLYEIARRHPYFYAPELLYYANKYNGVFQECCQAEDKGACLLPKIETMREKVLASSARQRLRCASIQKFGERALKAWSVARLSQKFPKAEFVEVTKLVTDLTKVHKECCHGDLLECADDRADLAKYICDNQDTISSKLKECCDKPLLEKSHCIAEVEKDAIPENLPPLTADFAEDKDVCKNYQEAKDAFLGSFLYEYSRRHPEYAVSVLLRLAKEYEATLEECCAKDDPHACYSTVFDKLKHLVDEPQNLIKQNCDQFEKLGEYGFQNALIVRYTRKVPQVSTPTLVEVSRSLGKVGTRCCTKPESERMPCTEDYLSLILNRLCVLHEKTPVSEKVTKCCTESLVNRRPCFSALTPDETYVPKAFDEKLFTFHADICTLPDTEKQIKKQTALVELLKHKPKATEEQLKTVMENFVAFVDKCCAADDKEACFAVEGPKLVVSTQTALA
- test: bovine serum albumin binders on microarray, profiling panel, artefact control for SMM control protein annotation, biochemical, small-molecule microarray, Alexa647 label, 635/667 nm fluorescence (AID 1118);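 also: score merges 667 nm emission intensity and signal-to-noise per printed compound spot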
- assay_conditions: BSA-A647 binding, fluorescence 635 nm, higher = more signal
measured_attribute: composite z-score
Numbers only.

>>> val("CCOC(=O)C[C@H]1[C@H](OC(=O)Cc2ccc3c(c2)OCO3)[C@@H](NC(=O)c2ccc(-c3ccccc3)cc2)c2cc(OCCCO)ccc2N1C(=O)c1ccc2ccccc2n1")
0.238
>>> val("[N-]=[N+]=NCc1ccccc1C[C@@]1(C(=O)NCC(O)CO)N=C(c2ccc(OCCCO)cc2)O[C@@H]1c1ccccc1N=[N+]=[N-] (some centres undefined)")
0.987
>>> val("COc1ccc(C(O)C2C=CC3C(=O)NC(=O)C3N2Nc2ccccn2)c2ccccc12 (centres undefined)")
0.304

Ask: Item `COC(=O)[C@@]1(Cc2ccc(F)cc2)[C@H]2c3cc(C(=O)N(C)C)n(CC4CC4)c3C[C@H]2CN1C(=O)c1ccccc1` has what recorded composite z-score?
Reply: 1.02
